Recorded measurements of LC50 MW, one per entry
Tested on: Maize weevil [Sitophilus zeamais (Motschulsky)]
Experiment: Maize weevil on dipped corn seeds (MW), 48 hours
Type: in vivo
Settings: percent in solution, adult weevils
Experimental: The compounds in Tables 1 and 2 above were tested for insecticidal activity using the following testing procedures. LC50 values, based on the results of these tests and calculated according to dosage-mortality curves, are expressed in Table 3. Maize weevil [Sitophilus zeamais (Motschulsky)]: Test compounds were diluted in a 50:50 acetone:water solution. […] Mortality was recorded after 48 hours. […]
Hi! Could you send only the number? It should be in %, unit omitted.

CC(C)C(=Nc1ccc(F)c(Cl)c1F)OCc1ccc(F)c(Oc2ccccc2)c1 ... 0.0051

// moving on: another record for LC50 MW
Query block: Returns the measured LC50 MW for the input compound. Input: CC(C)C(=Nc1ccc2c(c1)OCO2)OCc1cccc(Oc2ccc(F)cc2)c1
Result block: 0.009

====

tested on: Maize weevil [Sitophilus zeamais (Motschulsky)]; assay: Maize weevil on dipped corn seeds (MW), 48 hours; assay type: in vivo; settings: percent in solution, adult weevils
measure.name: LC50 MW

CC(C)C(=Nc1ccccc1C(F)(F)F)OCc1cccc(Oc2ccccc2)c1 [Compound 72] ... > 0.01%
CC(C)(F)C(=Nc1ccc(F)c(Cl)c1)OCc1cc(Oc2ccc(F)cc2)ccc1F [Compound 316] ... > 0.01%
CC(C)C(=Nc1ccc(F)c(Cl)c1)OCc1cccc(Oc2ccc(Cl)cc2)n1 [Compound 463] ... 0.01%
CC(C)C(=Nc1ccc(S(C)(=O)=O)cc1)OCc1ccc(F)c(Oc2ccc(F)cc2)c1 [Compound 414] ... > 0.01%
CC(C)C(=Nc1ccc(F)c(Cl)c1)OCc1cccc(Oc2ccccn2)c1 [Compound 549] ... > 0.01%

Query block: Reported LC50 MW, compound CC(C)C(=Nc1ccc(C(F)(F)F)cc1)OCc1cccc(Cc2ccccc2)c1 [Compound 535] : ____
Result block: > 0.01%

Query block: What measured LC50 MW goes with CC(C)C(=Nc1ccc(F)c(F)c1)OCc1cccc(Oc2ccc(Cl)cc2)n1 [Compound 559] ?
Result block: > 0.01%

Query block: Requested field: LC50 MW. Item: Cc1cc(N=C(OCc2cccc(Oc3ccc(Cl)cc3)c2)C(C)C)ccc1F [Compound 397]
Result block: > 0.01%

Query block: # query: LC50 MW of entry COc1ccc(N=C(OCc2cccc(Oc3ccccc3)c2)C(C)C)cc1 [Compound 160]
Result block: > 0.01%

Query block: So what does the record say about LC50 MW for CC(C)C(=Nc1cccc(C(F)(F)F)c1)OCc1coc(Cc2ccccc2)c1 [Compound 482] ?
Result block: > 0.01%

Query block: Which LC50 MW value belongs to CC(C)C(=Nc1ccc(F)c(Cl)c1)OCc1cccc(Oc2ccc(F)cc2)c1F [Compound 262] ?
Result block: 0.005%

Query block: I have this compound here, CC(C)C(=Nc1ccc(F)c(C(F)(F)F)c1)OCc1ccc(F)c(Oc2ccc(Cl)cc2)c1 [Compound 297] , and I need its recorded LC50 MW.
Result block: 0.0071%

Query block: // lookup LC50 MW for CC(C)C(=Nc1ccc(F)c(Cl)c1)OCc1cccc(Oc2ccc(F)cc2F)c1 [Compound 191]
Result block: 0.004%

Query block: Item CC(C)C(=Nc1ccc(F)c(Cl)c1)OCc1cccc(OCc2ccc(F)cc2)c1 [Compound 490] has what recorded LC50 MW?
Result block: > 0.01%

Query block: Find the recorded LC50 MW belonging to C#CC(OC(=Nc1ccc(F)c(Cl)c1)C(C)C)c1cccc(Oc2ccccc2)c1 (centres unmarked) [Compound 533] and report it.
Result block: > 0.01%

Query block: What measured LC50 MW goes with C#CCc1c(F)c(F)c(COC(=Nc2cccc(C(F)(F)F)c2)C(C)C)c(F)c1F [Compound 546] ?
Result block: 0.0032%

Query block: Would you kindly share the measured LC50 MW for CSc1ccc(Oc2cccc(COC(=Nc3ccc(F)c(Cl)c3)C(C)C)c2)cc1 [Compound 256] ?
Result block: > 0.01%

The measured values listed here are drawn from patent US5045566A.
